# credit: patent US20250296971A1

Catalogue of pIC50 readings, one per entry.
SYSTEM TESTED: human Gastric Inhibitory Peptide Receptor (human) (UniProt P48546)
Sequence (P48546 22-466 limits assumed): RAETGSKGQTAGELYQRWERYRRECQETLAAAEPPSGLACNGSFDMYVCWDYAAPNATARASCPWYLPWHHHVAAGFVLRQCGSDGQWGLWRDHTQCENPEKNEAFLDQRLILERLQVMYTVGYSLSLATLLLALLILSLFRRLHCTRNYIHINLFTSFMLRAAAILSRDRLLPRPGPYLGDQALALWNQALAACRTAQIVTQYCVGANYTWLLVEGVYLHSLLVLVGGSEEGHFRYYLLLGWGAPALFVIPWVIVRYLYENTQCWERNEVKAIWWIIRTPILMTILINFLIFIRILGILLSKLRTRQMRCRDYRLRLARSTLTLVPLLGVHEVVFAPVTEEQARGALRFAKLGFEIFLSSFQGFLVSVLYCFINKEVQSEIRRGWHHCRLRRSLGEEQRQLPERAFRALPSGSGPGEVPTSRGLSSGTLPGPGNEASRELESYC
TEST DESCRIPTION: FACS competition with GIP-057 on CHO-K1-hGIPR cells; pIC50 category A: >8.0
*1 amine or outer side, *2 acyl side, *3 side chain or, on linkers, in order; H or OH if unused. Bridges are numbered along the chain shown (N, C = ends). Primed or numbered codes have the meaning given here. [ ]: non-standard residue; d: D form. The star is where a group is joined. Ttds = 1,13-diamino-4,7,10-trioxatridecan-succinamic acid, NCCCOCCOCCOCCCNC(=O)CCC(=O)*; DOTA = O=C(O)CN1CCN(CC(=O)O)CCN(CC(=O)*)CCN(CC(=O)O)CC1; Trp(5-Cl) = N[C@@H](Cc1c[nH]c2ccc(Cl)cc12)C(=O)O; 2Lut″ = 2,6-lutidylidene linking two thiols; Pro(4S-NH2) = N[C@@H]1CN[C@H](C(=O)O)C1; mXylylene = c1cc(C[*:1])cc(C[*:2])c1; Hyp = O=C(O)[C@@H]1C[C@@H](O)CN1; Cysteamide = C(CS[*:3])N[*:1]; Thp = NC1(C(=O)O)CCOCC1; Aib = CC(C)(N)C(=O)O
VALUE KIND: pIC50

INSERT INTO measurements (binder, value_kind, recorded_value) VALUES
  ('DWXXEXCXLIC (N-term AGLU-Glutar; 5Clw; Hyp; leu (D-Leu); thioether cycle [Cys(2Lut)..Cys]; Apc(InDOTA); C-term APAc-glu(AGLU)-NH2) [AGLU-Glutar-Asp-Trp-5Clw-Hyp-Glu-leu-[Cys(2Lut)-Apc(InDOTA)-Leu-Ile-Cys]-APAc-glu(AGLU)-NH2]', 'pIC50', '> 8 pic50'),
  ('{DOTA-Ttds}-DW[Trp(5-Cl)][Pro(4S-NH2)](Ac)E[dL]C[Aib]LI[Cysteamide] (linker 7-11 via mXylylene) [DOTA-Ttds-Asp-Trp-5Clw-4Ap(Ac)-Glu-leu-[Cys(3MeBn)-Aib-Leu-Ile-AET]]', 'pIC50', '> 8 pic50'),
  ('Ac-QW[Trp(5-Cl)][Hyp]E[dL]C[Thp]LIC-NH2 (linker 7-11 via 2Lut″) [Ac-Gln-Trp-5Clw-Hyp-Glu-leu-[Cys(2Lut)-Thp-Leu-Ile-Cys]-NH2]', 'pIC50', '> 8 pic50');
